Test system: CEM-Cl
assayInfo: ATP luminescence proliferation assay, CEM-C1
Type: cell-based, human
condition: ATP luminescence, CEM-C1, 72 h incubation; read-out: EC50 CEM-C1 (72 h)
endpointLabel: pEC50
# reply with the number alone; pEC50 is -log10 of concentration in mol/L

| molecule | testTarget | pEC50 |
| --- | --- | --- |
| CC[C@H](C)[C@H](NC(=O)[C@H]1CCCCN1C)C(=O)N(COC(=O)CC(C)C)[C@H](C[C@@H](OC(C)=O)c1nc(C(=O)N[C@@H](Cc2ccccc2)C[C@H](C)C(=O)O)cs1)C(C)C [Tub D, tubulysin D, reference compound] | CEM-Cl | 11.52 |

Now for another entry.
Task: Which pEC50 reading was recorded for the molecule CCC[C@H](NC(=O)[C@H](Cc1ccccc1)NC(=O)c1csc([C@@H](C[C@H](C(C)C)N(C)C(=O)[C@@H](NC(=O)[C@H]2CCCCN2C)[C@@H](C)CC)OC)n1)C(=O)OC ?
Output: 7.96

---

Tested on: H740
assayInfo: 3H thymidine proliferation assay, H740
Assay type: cell-based, human
condition: Homo sapiens, read-out: EC50, H740, 3H thymidine method, 72 h incubation
endpointLabel: EC50 (nM)
The answer is to be given in nM; state only the numeric part.

Worked examples follow.
| compound | unitsLabel | obsValue |
| --- | --- | --- |
| CC[C@H](C)[C@H](NC(=O)[C@H]1CCCCN1C)C(=O)N(C)[C@H](C[C@@H](OC)c1nc(C(=O)N[C@@H](Cc2ccccc2)C(=O)N[C@@H](C)C(=O)OC)cs1)C(C)C [Compound 24] | nM | 51 |
| CC[C@H](C)[C@H](NC(=O)[C@H]1CCCCN1C)C(=O)N(C)[C@H](C[C@@H](OC)c1nc(C(=O)NC(Cc2ccccc2)C[C@H](C)C(=O)O)cs1)C(C)C (some centres unmarked) [Compound 15] | nM | 2.3 |
| CC[C@H](C)[C@H](NC(=O)[C@H]1CCCCN1C)C(=O)N(COC(=O)CC(C)C)[C@H](C[C@@H](OC(C)=O)c1nc(C(=O)N[C@@H](Cc2ccc(N)cc2)CC(C)C(=O)O)cs1)C(C)C (some centres unmarked) [Compound 54] | nM | 10 |

Task: Please look up its EC50: CCCC(NC(=O)c1csc([C@@H](C[C@H](C(C)C)N(C)C(=O)[C@@H](NC(=O)[C@H]2CCCCN2C)[C@@H](C)CC)OC)n1)C(=O)OC (some centres unmarked) [Compound 17]
Output: 32

Task: Need EC50, item CC[C@H](C)[C@H](NC(=O)[C@H]1CCCCN1C)C(=O)N(C)[C@H](C[C@@H](OC)c1nc(C(=O)N[C@H](CCC(=O)OC)Cc2ccccc2)cs1)C(C)C [Compound 26]
Output: 3

Task: // EC50 lookup, key: CC[C@H](C)[C@H](NC(=O)[C@H]1CCCCN1C)C(=O)N(C)[C@H](C[C@@H](OC)c1nc(C(=O)N[C@@H](C)C(=O)N[C@@H](Cc2ccccc2)C(=O)OC)cs1)C(C)C [Compound 26a]
Output: 3.2

Task: Sample CC[C@H](C)[C@H](NC(=O)[C@H]1CCCCN1C)C(=O)N(C)[C@H](C[C@@H](OC)c1nc(C(=O)N[C@H](CC(=O)OC)Cc2ccccc2)cs1)C(C)C [Compound 25] — what was its EC50?
Output: 347
